Test: Quantitative High-Throughput drug screen in 47 multiple myeloma cell lines against the NCATS MIPE library collection: XG6_PLB cell viability assay (AID 1919865); further: nearly all actives have a fitted effect of over 40% in size
Settings: XG6 myeloma viability, CellTiter-Glo ATP luminescence, 48 h; series mostly up to 45.8 µM
Source text: PI: Beverly A. Mock Ph.D. Laboratory of Cancer Biology and Genetics, Center for Cancer Research, National Cancer Institute, National Institute of Health, Bethesda, Maryland […] 5; Detector; 425V; Luminescence; Viewlux PerkinElmer. […] 1. […] Briefly, the corresponding myeloma cell lines were screened in 1,536-well plates with 500 cells, 5-uL per well for inhibition of cell viability (assessed by measuring ATP levels with CellTiterGlo). […]
Results filed as inconclusive are left out. The source made the active and inactive calls. The call rests on the fitted dose curve; in most records, active means well fitted cell-killing curve with a large enough effect; inconclusive means small, poorly fitted or top-dose-only effect, or effect the other way; inactive means no such curve, though single readings can be large or run the other way.
Outcome codes: true (1) = active, false (0) = inactive

compound=N#CNC(=NCCCCCCOc1ccc(Cl)cc1)Nc1ccncc1 category="true (1)"
compound="OCCNC1CCCc2c1[nH]c1ccc(-c3ccccc3)cc21 (stereo unspecified)" category="true (1)"
compound=C[C@H](NCc1ccc(OCc2cccc(F)c2)cc1)C(N)=O category="true (1)"
compound=Nc1ccc(C(=O)Nc2cccc(-c3nc(N4CCOCC4)c4oc5ncccc5c4n3)c2)cn1 category="true (1)"
compound=C[C@@]12C(=O)OC(=O)[C@@]1(C)C1CCC2O1 category="true (1)"
compound=COc1cccc2c1C(=O)c1c(O)c3c(c(O)c1C2=O)C[C@@](O)(C(=O)CO)C[C@@H]3O[C@H]1C[C@H](N)[C@@H](O)[C@H](C)O1 category="true (1)"
compound="Nc1nc(=O)n([C@H]2CSC(CO)O2)cc1F (stereo partly specified)" category="false (0)"
compound=C=C1C(=O)O[C@H]2[C@@H]1CCC(C)=CCC[C@@]1(C)O[C@@H]21 category="true (1)"
compound=O=C(Nc1cc2cc[nH]c2cn1)c1ccccc1 category="true (1)"
compound="OCC(O)C(O)C(O)CO (stereo unspecified)" category="false (0)"
compound=NC1=N[C@H]2[C@H](CS[C@H]2CCCCC(=O)O)N1 category="false (0)"
